The values you see were collected from paper PMC4744035.

# System: E. faecalis F43559 (VRE)
# Protocol Description: microbe, parasite or virus in culture
# Settings: F43559 (VRE)
Square brackets hold non-standard residues; d marks the D form. Peptide text beside a SMILES is read from it. Nspe = C[C@H](NCC(=O)O)c1ccccc1; Nlys = NCCCCNCC(=O)O
Listing of recorded MIC by entry.
Give just the numeric value; µg/mL need not be written.

Molecule: C[C@@H](c1ccccc1)N(CC(N)=O)C(=O)CN(Cc1ccccc1)C(=O)CN(CCCCN)C(=O)CN(Cc1ccccc1)C(=O)CN(Cc1ccccc1)C(=O)CN(CCCCN)C(=O)CN(Cc1ccccc1)C(=O)CN(Cc1ccccc1)C(=O)CN(CCCCN)C(=O)CN(Cc1ccccc1)C(=O)CN(Cc1ccccc1)C(=O)CNCCCCN
MIC [µg/mL]: 16

## Input Data request, read-out MIC, for C[C@@H](c1ccccc1)N(CC(N)=O)C(=O)CN(C(=O)CN(CCCCN)C(=O)[C@@H]1CCCN1C(=O)CN(C(=O)CN(CCCCN)C(=O)CN(C(=O)CN(C(=O)CN(CCCCN)C(=O)CN(C(=O)CN(C(=O)CNCCCCN)[C@@H](C)c1ccccc1)[C@@H](C)c1ccccc1)[C@@H](C)c1ccccc1)[C@@H](C)c1ccccc1)[C@@H](C)c1ccccc1)[C@@H](C)c1ccccc1 [Peptoid 1-Pro9] (H-[Nlys][Nspe][Nspe][Nlys][Nspe][Nspe][Nlys][Nspe]P[Nlys][Nspe][Nspe]-NH2)
## Output 8

## Input Dear colleague, I am looking for the recorded MIC of the following molecule: C[C@@H](c1ccccc1)N(CC(N)=O)C(=O)CN(C(=O)CN(CCCCN)C(=O)CN(C(=O)CN(C(=O)CN(CCCCN)C(=O)CN(C(=O)CN(C(=O)CN(CCCCN)C(=O)[C@@H]1CCCN1C(=O)CN(C(=O)CNCCCCN)[C@@H](C)c1ccccc1)[C@@H](C)c1ccccc1)[C@@H](C)c1ccccc1)[C@@H](C)c1ccccc1)[C@@H](C)c1ccccc1)[C@@H](C)c1ccccc1 [Peptoid 1-Pro3, H-NLys-Nspe-L-Pro-(NLys-Nspe-Nspe)3-NH2] (H-[Nlys][Nspe]P[Nlys][Nspe][Nspe][Nlys][Nspe][Nspe][Nlys][Nspe][Nspe]-NH2)
## Output 8

## Input // MIC lookup, key: C[C@H](NCC(=O)N(CC(=O)N(CCCCN)CC(=O)N(CC(=O)N(CCCCN)CC(=O)N(CC(=O)N(CCCCN)CC(=O)N(CC(=O)N(CC(=O)N(CC(=O)N(CC(=O)N(CCCCN)CC(N)=O)[C@@H](C)c1ccccc1)[C@@H](C)c1ccccc1)[C@@H](C)c1ccccc1)[C@@H](C)c1ccccc1)[C@@H](C)c1ccccc1)[C@@H](C)c1ccccc1)[C@@H](C)c1ccccc1)c1ccccc1 [Peptoid 1scr, H-(Nspe)2-(NLys-Nspe)3-(Nspe)3-NLys-NH2] (H-[Nspe][Nspe][Nlys][Nspe][Nlys][Nspe][Nlys][Nspe][Nspe][Nspe][Nspe][Nlys]-NH2)
## Output 8

* * *

# Test system: erythrocytes
# Protocol Description: Hemolytic activity (HD10/HD50)
# Assay type: cell-based
Square brackets hold non-standard residues; d marks the D form. Peptide text beside a SMILES is read from it. Nspe = C[C@H](NCC(=O)O)c1ccccc1; Nphe = O=C(O)CNCc1ccccc1; Nlys = NCCCCNCC(=O)O
Observable: HD10 (hemolytic activity)

## Input Please report the recorded HD10 (hemolytic activity) for C[C@@H](c1ccccc1)N(CC(N)=O)C(=O)CN(Cc1ccccc1)C(=O)CN(CCCCN)C(=O)CN(C(=O)CN(Cc1ccccc1)C(=O)CN(CCCCN)C(=O)CN(C(=O)CN(Cc1ccccc1)C(=O)CN(CCCCN)C(=O)CN(C(=O)CN(Cc1ccccc1)C(=O)CNCCCCN)[C@@H](C)c1ccccc1)[C@@H](C)c1ccccc1)[C@@H](C)c1ccccc1 [1-Npm2,5,8,11, H-(NLys-Npm-Nspe)4-NH2] (H-[Nlys][Nphe][Nspe][Nlys][Nphe][Nspe][Nlys][Nphe][Nspe][Nlys][Nphe][Nspe]-NH2) .
## Output 87
